- Assayed target: human ether-à-go-go-related gene (hERG) potassium channel (human);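 note: peak tail current of the secondary pulse compared with the same well before compound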
- Sequence (Q12809 whole entry, looked up): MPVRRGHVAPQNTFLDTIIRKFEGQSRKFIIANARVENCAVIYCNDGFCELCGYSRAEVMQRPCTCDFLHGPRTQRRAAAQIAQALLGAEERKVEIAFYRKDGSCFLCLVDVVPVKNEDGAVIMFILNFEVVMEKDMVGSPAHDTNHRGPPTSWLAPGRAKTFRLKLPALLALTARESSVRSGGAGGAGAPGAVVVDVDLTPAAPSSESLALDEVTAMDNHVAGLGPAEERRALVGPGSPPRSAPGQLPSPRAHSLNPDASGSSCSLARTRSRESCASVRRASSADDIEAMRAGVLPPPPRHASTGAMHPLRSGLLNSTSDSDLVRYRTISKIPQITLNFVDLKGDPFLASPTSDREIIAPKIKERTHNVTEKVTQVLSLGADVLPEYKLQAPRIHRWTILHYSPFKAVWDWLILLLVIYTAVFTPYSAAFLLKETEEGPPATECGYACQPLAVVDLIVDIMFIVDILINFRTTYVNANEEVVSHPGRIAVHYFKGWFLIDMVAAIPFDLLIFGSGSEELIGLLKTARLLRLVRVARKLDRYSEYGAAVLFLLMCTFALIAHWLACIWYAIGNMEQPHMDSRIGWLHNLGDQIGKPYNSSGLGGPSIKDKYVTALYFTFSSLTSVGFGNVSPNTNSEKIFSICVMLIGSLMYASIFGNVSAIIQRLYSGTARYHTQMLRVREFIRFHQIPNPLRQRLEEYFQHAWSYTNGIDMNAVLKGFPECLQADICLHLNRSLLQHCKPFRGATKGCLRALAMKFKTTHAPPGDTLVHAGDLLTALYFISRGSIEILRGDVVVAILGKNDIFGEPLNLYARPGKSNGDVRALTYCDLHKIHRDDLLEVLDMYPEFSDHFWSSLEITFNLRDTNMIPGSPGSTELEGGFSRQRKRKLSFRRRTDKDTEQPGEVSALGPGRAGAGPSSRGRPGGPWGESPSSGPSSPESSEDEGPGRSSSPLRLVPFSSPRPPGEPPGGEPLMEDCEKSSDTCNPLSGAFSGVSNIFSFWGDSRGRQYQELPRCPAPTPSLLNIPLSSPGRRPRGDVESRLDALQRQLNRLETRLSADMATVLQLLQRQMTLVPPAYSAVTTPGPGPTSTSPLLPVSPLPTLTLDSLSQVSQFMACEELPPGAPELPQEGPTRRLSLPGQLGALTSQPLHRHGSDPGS
- Assay name: primary screen, population patch clamp on CHO cells stably expressing hERG; higher = less effect of the substance
Among all 310,000 compounds or so, about 14,000 (4.5%) showed an effect of 50% or more. Effects have a minus sign here. The sample holds strong results, similar compounds and a random draw of the others, so the mix is not that of the screen.
Listing: hERG current change (%, negative = inhibition) at 10uM of selected molecules
Readout: hERG current change (%, negative = inhibition) at 10uM (%)

O=C(Nc1ccnn1C1CCN(CCCc2ccccc2)CC1)c1ccccc1Cl; -82.2
CN(Cc1ccccc1)C(=O)CNC(=O)Cn1cnc2ccccc2c1=O; -7.88
COc1ccc(C(=O)N/C(=C\c2cn(S(=O)(=O)N(C)C)c3ccccc23)C(=O)N2CCN(C)CC2)cc1; -50.8
COc1ccc(C(=O)N/C(=C\c2cn(C)c3ccccc23)C(=O)N2CCN(C)CC2)cc1OC; -3.26
COc1ccc(C(=O)N/C(=C\c2cn(C)c3ccccc23)C(=O)N2CCOCC2)cc1; -10.9
O=C(Nc1ccnn1C1CCN(Cc2ccn[nH]2)CC1)c1ccccc1; -18.2
COc1ccccc1C(=O)Nc1ccnn1C1CCN(CCCc2ccccc2)CC1; -78.3
CCOc1ccc(S(=O)(=O)NCCC(=O)NCC2(N3CCCCC3)CCCCC2)cc1; -33.2
CC(=O)Nc1ccc(S(=O)(=O)N(C)CC(=O)OCC(=O)N2CCCCC2)cc1; -1.43
Cc1nn(-c2ccccc2)c2c1C1(C(=O)Nc3ccccc31)N1C(=N2)Sc2ccccc21 (stereo not shown); 0.952
COc1ccc(S(=O)(=O)N2CCCC2C(=O)Nc2ccc(C)cc2)cc1 (stereo not shown); -15.3
CN(C)C(=O)CSc1ccc(S(=O)(=O)N2CCOCC2)cn1; 10.6
Cc1ccccc1C(=O)Nc1ccnn1C1CCN(CCCc2ccccc2)CC1; -78.4
CCOC(=O)c1c(S(=O)(=O)NCCc2ccc(OC)c(OC)c2)c(C)n(C)c1C; 4.97
COc1ccc(C(=O)N/C(=C\c2cccc3ccccc23)C(=O)N2CCN(C)CC2)cc1OC; -50.6
COc1ccc(C(=O)N/C(=C\c2cccc3ccccc23)C(=O)N2CCN(C)CC2)cc1; -65.6
CC(=O)CCC(=O)N1CCC(n2nccc2NC(=O)c2ccccc2C)CC1; 9.06
CCOC(=O)N1CCN(C(=O)/C(=C/c2cccc3ccccc23)NC(=O)c2ccc(OC)cc2)CC1; -50.9
CN(C)C(=S)c1ccc2ccccc2n1; 17.1

* * *

- Assayed target: human ether-à-go-go-related gene (hERG) potassium channel (human);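 note: peak tail current of the secondary pulse compared with the same well before compound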
- Assay name: primary screen, population patch clamp on CHO cells stably expressing hERG; higher = less effect of the substance
- Procedure: Briefly, Chinese hamster ovary (CHO) cells stably expressing the hERG channel were dislodged from tissue culture flasks and dispensed into PPC plates. […] During the recording, background leak currents were estimated by a 100 ms step to -80 mV from an initial holding potential of -70 mV and subtracted from the subsequent current measurement. The campaign was conducted in two phases using slight differences in recording protocol. […]
Hit rate of the full screen: of about 310,000 compounds, about 14,000 (4.5%) showed an effect of 50% or more. Effects have a minus sign here. For the sample, strong results were picked, then their nearest neighbours and some compounds at random.
Listing: hERG current change (%, negative = inhibition) at 10uM of selected compounds
Readout: hERG current change (%, negative = inhibition) at 10uM (%)

CC(OC(=O)Cn1cnc2c1c(=O)n(C)c(=O)n2C)C(=O)NCc1ccccc1 (stereo not shown); 3.36
COc1ccccc1C(=O)N(C1=NC(C)CS1)c1ccc(Cl)cc1 (stereo not shown); 7.94
CC(=O)Nc1ccccc1C(F)(F)F; 21.2
CCOc1ccc(OCC(=O)OCC(=O)N2CCN(C(=O)c3ccco3)CC2)cc1; -21.9
O=C(NNC(=S)NC(=O)c1cccs1)c1ccc(NC(=O)c2ccccc2)cc1; 13.7
c1ccc(-c2cn(C[C@H]3CC[C@@H]([C@@H]4CC[C@H](Cn5cc(-c6ccccn6)nn5)O4)O3)nn2)nc1; -6.73
C=CCn1nc2ccccc2c1OC; 3.76
COc1ccc2cc(CN(CC3CCCO3)S(=O)(=O)c3ccccc3Cl)c(=O)[nH]c2c1 (stereo not shown); -36.7
CC(C)Oc1ccc(/C(O)=C2/C(=O)C(=O)N(CCN3CCOCC3)C2c2ccccc2)cc1 (stereo not shown); 13.6
Cn1c(=O)c2c(nc(N3CCc4ccccc4C3)n2C)n(C)c1=O; 7.62
